target: DLG4_2, P78352; assay: holdup assay; design: key: below the threshold = too weak to quantify, mostly under pKd 3.1 to 4; details: plain residues with an end cap or a label only (N-terminal biotin on a linker: ado-ado)
Sequence (P78352 155-259): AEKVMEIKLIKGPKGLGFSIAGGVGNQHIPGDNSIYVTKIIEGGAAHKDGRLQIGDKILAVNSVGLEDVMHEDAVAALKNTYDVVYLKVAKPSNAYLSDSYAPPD
propertyName: pKd

Look over these answered cases.
GNSVLKSTQF [SLC22A12, Q96S37]: below the threshold
CLREWCDAFL [BANF1, O75531]: below the threshold
LPHGHSTTRV [NLGN4X, Q8N0W4]: 3.97
LGRSTPQSEV [DGKH, Q86XP1]: 3.92
KKAPTNEFYA [SDC4, P31431]: below the threshold
TSSMRGMDAV [RSRC2, Q7L4I2]: below the threshold

Data request, read-out pKd, for IPLDGETEEL [MYOZ1, Q9NP98]
below the threshold

Data request, read-out pKd, for QPCFNKLFPL [LPXN, O60711]
below the threshold

Data request, read-out pKd, for YYKRPVQEWV [MMP24, Q9Y5R2]
4.03

Data request, read-out pKd, for YLEPVLSSEL [ATP2A2, P16615;P16615-3]
below the threshold
